Experiment: Ratio of unbound drug level in brain to plasma in Sprague-Dawley rat at 60 mg/kg, po measured at 8 hrs
Format: ADME, organism-based
Design: dose 60 mg/kg, route oral
Conditions: brain and plasma (unbound), read-out: K(p,uu,brain)
readout-type: Kp uu at 8 h
Form: value (number only, do not type unit).

Kp uu at 8 h measured on CN1C(=O)[C@]2(N=C1N)c1cc(-c3cccnc3F)ccc1O[C@H]1CCOC[C@@H]12 = 0.049

====

Assay: Ratio of unbound drug level in brain to plasma in CD-1 mouse measured at 4 hrs
Type: ADME
Conditions: CD-1, mouse, read-out: K(p,uu,brain)
For each record, check the reported Kp uu at 4 h: if it is below 0.05 write Y, else write N.

CN1C(=O)[C@]2(N=C1N)c1cc(-c3cccnc3F)ccc1O[C@H]1CCOC[C@@]12C (racemic) = N
C[C@]12CCOC[C@@H]1[C@]1(COC(N)=N1)c1cc(-c3cc(F)cc(Cl)c3)ccc1O2 = N
CN1C(=O)[C@]2(N=C1N)c1cc(-c3cccc(C#N)c3)ccc1O[C@H]1CCOC[C@@H]12 (racemic) = Y

Hello, I'm reviewing records and need to know if Kp uu at 4 h of C[C@H]1OCC[C@H]2Oc3ccc(-c4cccnc4F)cc3[C@]3(N=C(N)N(C)C3=O)[C@H]12 (racemic) is below 0.05. Could you check?
Y

Hello, I'm reviewing records and need to know if Kp uu at 4 h of CN1C(=O)[C@]2(N=C1N)c1cc(-c3cc(F)cc(Cl)c3)ccc1O[C@H]1CCOC[C@@H]12 (racemic) is below 0.05. Could you check?
Y

Hello, I'm reviewing records and need to know if Kp uu at 4 h of C[C@]12CCOC[C@@H]1[C@]1(COC(N)=N1)c1cc(-c3cncc(Cl)c3)ccc1O2 (racemic) is below 0.05. Could you check?
Y

Hello, I'm reviewing records and need to know if Kp uu at 4 h of CN1C(=O)[C@]2(N=C1N)c1cc(-c3cccnc3F)ccc1O[C@H]1CCOC[C@@H]12 is below 0.05. Could you check?
N
